All figures here come from the supplement of paper PMC10065799.

system: c-Abl (mouse); experiment: phosphorylation enrichment, bacterial display (enrichment ratio); higher = better substrate or ligand; peptides without Tyr show the background;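 note: 11-residue human phosphosite peptides and single-mutation variants displayed on the E. coli surface, counted by deep sequencing, each peptide's frequency after selection divided by its frequency in the unselected input library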;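 note: frequency after pTyr selection over input frequency; kinase dosed for 20-30% of maximal phosphorylation in three min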
The label depends only on phosphorylation enrichment: Condition met if it is at least 0.8, Condition not met if it is smaller.

Problem: Check this sequence for phosphorylation enrichment at or above 0.8: EGLKVYVNGTL [ADGRD1_Y183]
Result: Condition met

Problem: Check this sequence for phosphorylation enrichment at or above 0.8: EIASHYRHLLR [ZBTB46_Y14_T11A]
Result: Condition not met

Problem: Check this sequence for phosphorylation enrichment at or above 0.8: FIRKDYEACKA [BBS4_Y48_YF]
Result: Condition not met

Problem: Check this sequence for phosphorylation enrichment at or above 0.8: RNGDRYFKEIV [DCX_Y64_G67E]
Result: Condition not met

Problem: Check this sequence for phosphorylation enrichment at or above 0.8: KNKKDYYDMYE [SLC26A3_Y526]
Result: Condition not met

Problem: Check this sequence for phosphorylation enrichment at or above 0.8: PLRADYLIARV [HLCS_Y635]
Result: Condition met

Problem: Check this sequence for phosphorylation enrichment at or above 0.8: ARGTRYRFVSQ [UCN3_Y95_YF]
Result: Condition not met

Problem: Check this sequence for phosphorylation enrichment at or above 0.8: TNRSFYFKPSL [NUP153_Y382_V381F]
Result: Condition met

Problem: Check this sequence for phosphorylation enrichment at or above 0.8: RKNAKYLLKGE [CDH5_Y82]
Result: Condition met

Problem: Check this sequence for phosphorylation enrichment at or above 0.8: VDFQPYRKHKF [TEX37_Y28_YF]
Result: Condition not met

Problem: Check this sequence for phosphorylation enrichment at or above 0.8: NPSFNYEIVNR [DYNC1H1_Y3379_YF]
Result: Condition not met

Problem: Check this sequence for phosphorylation enrichment at or above 0.8: ALAQKYHGGGG [HBB_Y146_H144Q]
Result: Condition not met

Problem: Check this sequence for phosphorylation enrichment at or above 0.8: LLVVLYKYRCF [PSEN1_Y154_Y159F]
Result: Condition met

Problem: Check this sequence for phosphorylation enrichment at or above 0.8: WIPIQDPIISE [NOG_Y222_Y222D]
Result: Condition met

Problem: Check this sequence for phosphorylation enrichment at or above 0.8: VHLYAYDWISI [BEST1_Y227_G222V]
Result: Condition met

Problem: Check this sequence for phosphorylation enrichment at or above 0.8: ATQDNYVLEVR [PTPRZ1_Y2179_D2178N]
Result: Condition not met

Problem: Check this sequence for phosphorylation enrichment at or above 0.8: EYFENYIEELK [PARP4_Y218]
Result: Condition met

Problem: Check this sequence for phosphorylation enrichment at or above 0.8: AAVDTVCRHNF [HLA-DRB1_Y107_Y107V_YF]
Result: Condition met

Problem: Check this sequence for phosphorylation enrichment at or above 0.8: MSSHHCDFKKF [ZNF445_Y428_Y428C_YF]
Result: Condition not met

Problem: Check this sequence for phosphorylation enrichment at or above 0.8: PGVDIYISPNM [PADI3_Y51]
Result: Condition met

Problem: Check this sequence for phosphorylation enrichment at or above 0.8: EALSLYTKLMN [STAM_Y371]
Result: Condition met

Problem: Check this sequence for phosphorylation enrichment at or above 0.8: ASKEPYYVHCI [MYO1D_Y585_R588H]
Result: Condition not met

Problem: Check this sequence for phosphorylation enrichment at or above 0.8: RNLLIYTEFGK [HGD_Y166_G161R]
Result: Condition met

Problem: Check this sequence for phosphorylation enrichment at or above 0.8: PVGVLYEVKVF [PTS_Y128_K129E_YF]
Result: Condition met

Problem: Check this sequence for phosphorylation enrichment at or above 0.8: LEAFQYIGESQ [MSH2_Y856_E853A]
Result: Condition met

Problem: Check this sequence for phosphorylation enrichment at or above 0.8: RVNSAYQDKVS [ACAN_Y100]
Result: Condition met

Problem: Check this sequence for phosphorylation enrichment at or above 0.8: EFFDGYWGFSV [ITGA2B_Y265_YF]
Result: Condition met

Problem: Check this sequence for phosphorylation enrichment at or above 0.8: FFHCTYKQRMI [CLEC12A_Y242_K244Q_YF]
Result: Condition met

Problem: Check this sequence for phosphorylation enrichment at or above 0.8: EEHIPCTHMNG [INSR_Y1361_Y1361C]
Result: Condition met

Problem: Check this sequence for phosphorylation enrichment at or above 0.8: RPDSPYSRPHD [DOK2_Y271]
Result: Condition not met

Problem: Check this sequence for phosphorylation enrichment at or above 0.8: LEEFQYIGESQ [MSH2_Y856]
Result: Condition met

Problem: Check this sequence for phosphorylation enrichment at or above 0.8: RHTRSYDFMEG [FGF7_Y56_YF]
Result: Condition met

Problem: Check this sequence for phosphorylation enrichment at or above 0.8: RSFSPYDFQPC [TNS1_Y796_YF]
Result: Condition met

Problem: Check this sequence for phosphorylation enrichment at or above 0.8: CPSLLYSPVSS [CAMKK2_Y128_P127L]
Result: Condition met

Problem: Check this sequence for phosphorylation enrichment at or above 0.8: DTQNSYGCATS [TSC1_Y304]
Result: Condition met

Problem: Check this sequence for phosphorylation enrichment at or above 0.8: RIVEIYSRRLQ [GCH1_Y175]
Result: Condition not met

Problem: Check this sequence for phosphorylation enrichment at or above 0.8: FEPDAYDDLDQ [ELP5_Y302_YF]
Result: Condition not met

Problem: Check this sequence for phosphorylation enrichment at or above 0.8: HNMPIYEGFAL [ACTA1_Y168_V165M_YF]
Result: Condition met

Problem: Check this sequence for phosphorylation enrichment at or above 0.8: TTKGAYSLSIR [YES1_Y194]
Result: Condition not met

Problem: Check this sequence for phosphorylation enrichment at or above 0.8: ITVCDYTNPCT [MYD88_Y276]
Result: Condition not met

Problem: Check this sequence for phosphorylation enrichment at or above 0.8: ENELTYYCYKK [CD59_Y86_C89Y]
Result: Condition met

Problem: Check this sequence for phosphorylation enrichment at or above 0.8: LITILYIGFLG [KCNQ1_Y267_T265I]
Result: Condition met

Problem: Check this sequence for phosphorylation enrichment at or above 0.8: TYAVSYLPDMS [FLNC_Y1602_T1599A]
Result: Condition met

Problem: Check this sequence for phosphorylation enrichment at or above 0.8: EVESPYEVRDF [GIGYF2_Y1168_H1171R_YF]
Result: Condition met

Problem: Check this sequence for phosphorylation enrichment at or above 0.8: PFAEPYADFGG [APBA1_Y187_S184A_YF]
Result: Condition not met

Problem: Check this sequence for phosphorylation enrichment at or above 0.8: RLLVVYPWTQG [HBG2_Y36_R41G]
Result: Condition not met

Problem: Check this sequence for phosphorylation enrichment at or above 0.8: AAPAAHDAADT [GAMT_Y27_Y27H]
Result: Condition not met

Problem: Check this sequence for phosphorylation enrichment at or above 0.8: HVSISYDIPPT [GAB1_Y307]
Result: Condition not met

Problem: Check this sequence for phosphorylation enrichment at or above 0.8: LEKRAYICAHP [ACAD9_Y611]
Result: Condition not met

Problem: Check this sequence for phosphorylation enrichment at or above 0.8: IKELTYQTEED [MYH7_Y1852]
Result: Condition not met

Problem: Check this sequence for phosphorylation enrichment at or above 0.8: PSQRRYVYYYS [PTEN_Y174]
Result: Condition met

###

Exercise: for every item that follows, state its recorded phosphorylation enrichment.
biological target: Fes (UniProt P07332); test: phosphorylation enrichment, bacterial display (enrichment ratio); higher = better substrate or ligand; peptides without Tyr show the background
Sequence (P07332 whole entry, looked up): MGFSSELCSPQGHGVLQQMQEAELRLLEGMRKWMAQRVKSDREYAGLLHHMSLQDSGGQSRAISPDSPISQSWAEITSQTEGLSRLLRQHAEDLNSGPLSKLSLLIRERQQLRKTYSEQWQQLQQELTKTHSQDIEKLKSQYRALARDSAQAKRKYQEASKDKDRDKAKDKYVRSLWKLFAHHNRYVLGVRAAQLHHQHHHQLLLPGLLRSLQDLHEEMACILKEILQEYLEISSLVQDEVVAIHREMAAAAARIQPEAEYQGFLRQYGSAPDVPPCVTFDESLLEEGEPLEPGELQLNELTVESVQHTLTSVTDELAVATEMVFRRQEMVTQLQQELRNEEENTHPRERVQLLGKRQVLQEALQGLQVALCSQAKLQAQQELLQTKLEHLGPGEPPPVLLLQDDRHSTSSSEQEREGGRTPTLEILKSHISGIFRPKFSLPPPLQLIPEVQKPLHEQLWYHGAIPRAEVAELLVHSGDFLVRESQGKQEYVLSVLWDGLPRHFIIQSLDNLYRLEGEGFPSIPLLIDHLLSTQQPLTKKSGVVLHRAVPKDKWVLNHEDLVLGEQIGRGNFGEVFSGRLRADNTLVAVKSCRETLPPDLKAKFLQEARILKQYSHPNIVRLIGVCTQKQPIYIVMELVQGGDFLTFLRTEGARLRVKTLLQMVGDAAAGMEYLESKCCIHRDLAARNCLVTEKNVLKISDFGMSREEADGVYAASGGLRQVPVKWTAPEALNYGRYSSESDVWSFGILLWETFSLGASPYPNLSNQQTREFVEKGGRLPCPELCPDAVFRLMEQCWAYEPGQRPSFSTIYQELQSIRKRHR
Please reply with the value in numeric form only.

Kindly note the recorded phosphorylation enrichment for EDDPEYMRLRN [ADD2_Y31] , which is 1.17

Kindly note the recorded phosphorylation enrichment for HSSPVYVGRVV [TGM2_Y219_R214H] , which is 1.97

Kindly note the recorded phosphorylation enrichment for DYTEAYNSKIK [CLK1_Y305_P307S] , which is 0.969

Kindly note the recorded phosphorylation enrichment for EALSLYTKLMN [STAM_Y371] , which is 1.48

Kindly note the recorded phosphorylation enrichment for AESPEYVHMFT [FAM111A_Y511_YF] , which is 1.12

Kindly note the recorded phosphorylation enrichment for LEDEVCAQKMK [TPM2_Y261_Y261C] , which is 2.03

Kindly note the recorded phosphorylation enrichment for GDFFCYLAEVA [YWHAG_Y133_R132C_YF] , which is 1.52

Kindly note the recorded phosphorylation enrichment for AEPTGYSAELS [EZR_Y499] , which is 1.01

Kindly note the recorded phosphorylation enrichment for IKIMGYFIRTI [IDS_Y490_S491F] , which is 1.08

Kindly note the recorded phosphorylation enrichment for ESMQSYDLDYP [UNC13B_Y243_D238E] , which is 1.26

Kindly note the recorded phosphorylation enrichment for TGYRPYVCPFD [YY1_Y383_D380Y] , which is 1.33

Kindly note the recorded phosphorylation enrichment for MRALIYNSSTV [PLEKHA7_Y243_A248V] , which is 0.824

Kindly note the recorded phosphorylation enrichment for EQMLEYMGQLQ [CFAP45_Y289_E291G] , which is 1.01

Kindly note the recorded phosphorylation enrichment for SVVVPYEPLEV [TP53_Y220_P223L] , which is 1.23

Kindly note the recorded phosphorylation enrichment for LDPMVYMNDTS [PTK2B_Y834_K838T] , which is 1.11

Kindly note the recorded phosphorylation enrichment for KTDVHYRSLGG [DYSF_Y1858] , which is 0.515

Kindly note the recorded phosphorylation enrichment for DRLASYLDKAR [KRT14_Y129_V133A] , which is 0.634

Kindly note the recorded phosphorylation enrichment for QAIDEYEKWLE [MAP9_Y603_N601D] , which is 1.41

Kindly note the recorded phosphorylation enrichment for MWGSDYVHLSR [MAP3K4_Y582_Q584H] , which is 0.693

Kindly note the recorded phosphorylation enrichment for VTRANYFIRDE [GNAS_Y339_K338N] , which is 0.736

Kindly note the recorded phosphorylation enrichment for SECCKYKIDNL [OSMR_Y689_P694L] , which is 0.939

Kindly note the recorded phosphorylation enrichment for RNNTEYVRDIG [MUSK_Y577_I575T] , which is 0.582

Kindly note the recorded phosphorylation enrichment for FECKWYIPLTD [BCR_Y756_D752E_YF] , which is 1.49

Kindly note the recorded phosphorylation enrichment for CVRTIYTIDGS [DCLK2_Y124_G119C] , which is 1.06

Kindly note the recorded phosphorylation enrichment for QKTGDYYDLYG [PTPN11_Y62_N58K] , which is 1.33

Kindly note the recorded phosphorylation enrichment for SPDMLYQFLKQ [RPAP3_Y567_YF] , which is 0.971

Kindly note the recorded phosphorylation enrichment for ILNANCMAKRL [GLDC_Y839_Y839C] , which is 0.628

Kindly note the recorded phosphorylation enrichment for RSDSTYRMSAT [NHS_Y1532_S1531T] , which is 0.581
